Reference for the values: patent US8741834B2

experiment: Stability in buffer at various pH values; type: physicochemical; settings: pH 4, 37° C., 4 h
Counter-ions that a name gives are not always drawn.
measured_property: % test substance after 4 h [F(t = 4 h) × 100/F(t = 0 h)] (%)
Give bare numbers, in %.

molecule	unit_annotation	measured_number
C[C@H](NC(=O)C[C@H](N)C(=O)O)C(=O)OC[C@H](COc1ccc(-c2c(C#N)c(N)nc(SCc3coc(-c4ccc(Cl)cc4)n3)c2C#N)cc1)OC(=O)[C@H](C)NC(=O)C[C@H](N)C(=O)O [Example 14, bis(trifluoroacetic acid) salt]	%	96

Batch lookup, % test substance after 4 h [F(t = 4 h) × 100/F(t = 0 h)] per entry.
1. CC[C@H](C)[C@H](N)C(=O)N[C@@H](C)C(=O)OC[C@H](COc1ccc(-c2c(C#N)c(N)nc(SCc3coc(-c4ccc(Cl)cc4)n3)c2C#N)cc1)OC(=O)[C@H](C)NC(=O)[C@@H](N)[C@@H](C)CC [Example 2]
2. C[C@H](N)C(=O)N[C@@H](C)C(=O)OC[C@H](COc1ccc(-c2c(C#N)c(N)nc(SCc3coc(-c4ccc(Cl)cc4)n3)c2C#N)cc1)OC(=O)[C@H](C)NC(=O)[C@H](C)N [Example 33]

100
100

Batch lookup, % test substance after 4 h [F(t = 4 h) × 100/F(t = 0 h)] per entry.
1. CC(C)[C@H](N)C(=O)N[C@@H](C)C(=O)OC[C@H](COc1ccc(-c2c(C#N)c(N)nc(SCc3coc(-c4ccc(Cl)cc4)n3)c2C#N)cc1)OC(=O)[C@H](C)NC(=O)[C@@H](N)C(C)C [Example 26]
2. C[C@H](NC(=O)[C@@H](N)CCCCN)C(=O)OC[C@H](COc1ccc(-c2c(C#N)c(N)nc(SCc3coc(-c4ccc(Cl)cc4)n3)c2C#N)cc1)OC(=O)[C@H](C)NC(=O)[C@@H](N)CCCCN [Example 35]
3. C[C@H](NC(=O)CCN)C(=O)OC[C@H](COc1ccc(-c2c(C#N)c(N)nc(SCc3coc(-c4ccc(Cl)cc4)n3)c2C#N)cc1)OC(=O)[C@H](C)NC(=O)CCN [Example 32]
4. C[C@H](NC(=O)CN)C(=O)OC[C@H](COc1ccc(-c2c(C#N)c(N)nc(SCc3coc(-c4ccc(Cl)cc4)n3)c2C#N)cc1)OC(=O)[C@H](C)NC(=O)CN [Example 7]
5. C[C@H](NC(=O)[C@@H](N)CCCCN)C(=O)OC[C@@H](COc1ccc(-c2c(C#N)c(N)nc(SCc3coc(-c4ccc(Cl)cc4)n3)c2C#N)cc1)OC(=O)[C@H](C)NC(=O)[C@@H](N)CCCCN [Example 34]
6. C[C@H](NC(=O)[C@@H]1CCCN1)C(=O)OC[C@H](COc1ccc(-c2c(C#N)c(N)nc(SCc3coc(-c4ccc(Cl)cc4)n3)c2C#N)cc1)OC(=O)[C@H](C)NC(=O)[C@@H]1CCCN1 [Example 8, (trifluoroacetic acid) salt]
7. CC(C)[C@H](NC(=O)[C@H](C)N)C(=O)OC[C@H](COc1ccc(-c2c(C#N)c(N)nc(SCc3coc(-c4ccc(Cl)cc4)n3)c2C#N)cc1)OC(=O)[C@@H](NC(=O)[C@H](C)N)C(C)C [Example 28]

[100, 98, 100, 100, 100, 100, 100]
